study_target: Thyroid hormone receptor beta (Homo sapiens) (UniProt P10828)
Sequence (P10828 whole entry, looked up): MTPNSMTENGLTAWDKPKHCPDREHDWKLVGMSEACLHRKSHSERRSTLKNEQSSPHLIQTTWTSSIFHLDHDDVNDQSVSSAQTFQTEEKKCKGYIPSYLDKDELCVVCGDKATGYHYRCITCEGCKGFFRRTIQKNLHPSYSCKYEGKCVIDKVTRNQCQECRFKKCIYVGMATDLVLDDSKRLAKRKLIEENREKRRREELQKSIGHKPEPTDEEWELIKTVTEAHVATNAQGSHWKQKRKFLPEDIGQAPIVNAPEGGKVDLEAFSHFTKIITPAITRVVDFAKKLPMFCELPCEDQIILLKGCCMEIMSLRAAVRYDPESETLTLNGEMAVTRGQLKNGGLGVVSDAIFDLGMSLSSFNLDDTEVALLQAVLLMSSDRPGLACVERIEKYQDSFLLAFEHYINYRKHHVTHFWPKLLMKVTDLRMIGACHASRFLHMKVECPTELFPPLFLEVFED
method: qHTS assay for small molecule agonists of thyroid hormone receptor beta signaling (AID 588545)
assay_setup: TR-UAS-bla GripTite HEK 293, beta-lactamase ratio, agonist mode, 18 h, percent of T3 response, DMSO as zero; series mostly up to 76.7 µM
Results filed as inconclusive are left out. The source made the active and inactive calls. Calls come from the whole dose curve.
measurement_type: outcome

> print(dat)
                            compound    result
1       O=C(OOC(=O)c1ccccc1)c1ccccc1  inactive
2                Cc1ccc(C(C)C)c(O)c1  inactive
3  CCCC(O)C(CC)CO (stereo not drawn)  inactive
